Test system: Escherichia coli TOP10;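 note: peptides expressed intracellularly from a pBAD plasmid library in pooled LB shake-flask culture, induced with 0.3% L-arabinose, DNA abundance read by NGS, three biological replicates, DESeq2 with apeglm shrinkage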
test description: shrunken log2 fold change of peptide-encoding DNA abundance (4.5 h post-induction vs induction); higher = less antimicrobial activity (less host growth inhibition)
measurement parameters: time post-induction: 4.5 h; library: site-saturation at positions 5, 18, 19, 20
Documented shrunken log2 fold change across a set of sequences
Keep it simple and answer with nothing but the number.

Illustrative cases are given below, each with its answer.
RRIRERPPRLPRPRPRPAYVPRP : -0.859
RRIRERPPRLPRPRPRPYYWPRP : -0.192
RRIRLRPPRLPRPRPRPENIPRP : -0.519
RRIRARPPRLPRPRPRPIRKPRP : 0.0897
RRIRMRPPRLPRPRPRPMNRPRP : -0.24

[ask] Tell me its shrunken log2 fold change given RRIRARPPRLPRPRPRPMHRPRP as the entry.
[reply] -0.137

[ask] Tell me its shrunken log2 fold change given RRIRTRPPRLPRPRPRPITYPRP as the entry.
[reply] -0.0511

[ask] Tell me its shrunken log2 fold change given RRIRKRPPRLPRPRPRPEYVPRP as the entry.
[reply] -0.00396

[ask] Tell me its shrunken log2 fold change given RRIRRRPPRLPRPRPRPLWVPRP as the entry.
[reply] 0.382

[ask] Tell me its shrunken log2 fold change given RRIRYRPPRLPRPRPRPEYSPRP as the entry.
[reply] -0.0605

[ask] Tell me its shrunken log2 fold change given RRIRLRPPRLPRPRPRPFRTPRP as the entry.
[reply] -0.0778

[ask] Tell me its shrunken log2 fold change given RRIRFRPPRLPRPRPRPAHRPRP as the entry.
[reply] 0.418

[ask] Tell me its shrunken log2 fold change given RRIRIRPPRLPRPRPRPIRHPRP as the entry.
[reply] -0.0741

[ask] Tell me its shrunken log2 fold change given RRIRFRPPRLPRPRPRPLRQPRP as the entry.
[reply] 0.0138

[ask] Tell me its shrunken log2 fold change given RRIRLRPPRLPRPRPRPWIQPRP as the entry.
[reply] -0.355

[ask] Tell me its shrunken log2 fold change given RRIRERPPRLPRPRPRPDILPRP as the entry.
[reply] 0.0234

[ask] Tell me its shrunken log2 fold change given RRIRFRPPRLPRPRPRPIKEPRP as the entry.
[reply] -0.113

[ask] Tell me its shrunken log2 fold change given RRIRGRPPRLPRPRPRPARSPRP as the entry.
[reply] 0.686

[ask] Tell me its shrunken log2 fold change given RRIRRRPPRLPRPRPRPITIPRP as the entry.
[reply] 0.035

[ask] Tell me its shrunken log2 fold change given RRIRGRPPRLPRPRPRPDSVPRP as the entry.
[reply] 0.704

[ask] Tell me its shrunken log2 fold change given RRIRSRPPRLPRPRPRPCTLPRP as the entry.
[reply] -0.399

[ask] Tell me its shrunken log2 fold change given RRIRWRPPRLPRPRPRPCPFPRP as the entry.
[reply] -0.646

[ask] Tell me its shrunken log2 fold change given RRIRDRPPRLPRPRPRPEYKPRP as the entry.
[reply] 0.27
